Values were extracted from patent US8993585B2.

- tested.on: PKC theta (Homo sapiens, UniProt Q04759)
- Construct: purchased Upstate Biotechnologies, Temecula, CA 14-444
- Sequence (Q04759 whole entry): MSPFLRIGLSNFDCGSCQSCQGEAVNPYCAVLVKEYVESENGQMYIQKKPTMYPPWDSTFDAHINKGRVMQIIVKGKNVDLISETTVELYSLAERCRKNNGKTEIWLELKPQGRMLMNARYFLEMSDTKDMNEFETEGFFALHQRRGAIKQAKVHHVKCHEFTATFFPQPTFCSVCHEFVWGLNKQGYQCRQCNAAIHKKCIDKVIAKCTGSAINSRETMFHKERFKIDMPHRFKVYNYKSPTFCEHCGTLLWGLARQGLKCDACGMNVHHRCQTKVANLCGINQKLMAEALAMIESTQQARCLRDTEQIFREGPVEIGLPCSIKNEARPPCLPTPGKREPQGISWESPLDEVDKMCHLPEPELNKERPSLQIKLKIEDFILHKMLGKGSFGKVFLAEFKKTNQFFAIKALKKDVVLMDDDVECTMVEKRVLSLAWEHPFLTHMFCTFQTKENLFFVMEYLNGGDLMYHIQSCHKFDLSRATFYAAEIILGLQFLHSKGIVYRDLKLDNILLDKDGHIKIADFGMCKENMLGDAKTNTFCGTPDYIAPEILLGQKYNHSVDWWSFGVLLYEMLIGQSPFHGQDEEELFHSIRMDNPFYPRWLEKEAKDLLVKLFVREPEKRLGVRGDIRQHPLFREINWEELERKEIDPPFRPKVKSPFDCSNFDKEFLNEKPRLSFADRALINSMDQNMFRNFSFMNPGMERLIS
- experimental.protocol: PKC assay, fluorescence polarization (Example 2), PKC theta
- Assay type: biochemical
- experimental.context: 5 μM ATP
test.readout: IC50 (nM)

# molecule, tested.on, measured.result
rows = [
    ("CN1C(C)(C)CC(Nc2nc(Nc3cccc(C#N)c3)ncc2F)CC1(C)C [Compound I-26]", "PKC theta (Homo sapiens, UniProt Q04759)", 3),
    ("COc1ccc(Nc2ncc(F)c(NC3CC(C)(C)NC(C)(C)C3)n2)cc1Cl [Compound I-254]", "PKC theta (Homo sapiens, UniProt Q04759)", 53.9),
    ("CN1CCN(c2ccc(Nc3ncc(F)c(NC4CCN(CCO)CC4)n3)cc2C(F)(F)F)CC1 [III-7]", "PKC theta (Homo sapiens, UniProt Q04759)", 254),
    ("CN1C(C)(C)CC(Nc2nc(Nc3ccc(F)c(Br)c3)ncc2F)CC1(C)C [Compound I-158]", "PKC theta (Homo sapiens, UniProt Q04759)", 20.6),
]

a = CN1C(C)(C)CC(Nc2nc(Nc3cccc(OC(F)(F)F)c3)ncc2F)CC1(C)C [Compound I-223]
b = CN1C(C)(C)CC(Nc2nc(Nc3cccc(OC(F)F)c3)ncc2F)CC1(C)C [Compound I-234]
Just curious, which one has the larger IC50 reading, a or b ? Lab note: record the label of whichever item you select.
a

---

- Tested on: Human primary T cells
- experimental.protocol: IL-2 ELISA, Human Primary T Cell, Anti-CD3+CD28+ (Example 3)
- Format: cell-based
- experimental.context: Homo sapiens, T-cell, 24 h, anti-CD3+CD28 stimulation
test.readout: IC50 (nM)

A selection of reference data follows.
# compound, measured.result
data = [
    ("CN1C(C)(C)CC(Nc2nc(Nc3ccc(N4CCCC4)c(C#N)c3)ncc2F)CC1(C)C [Compound I-200]", 185),
    ("Cc1cc(Nc2ncc(F)c(NC3CC(C)(C)N(C)C(C)(C)C3)n2)ccc1-c1ccoc1 [Compound I-122]", 295),
    ("COc1cc(Nc2ncc(F)c(N(Cc3ccc(-c4ccccc4C#N)cc3)C3CC(C)(C)N(C)C(C)(C)C3)n2)cc(OC)c1 [Compound I-325]", 3460),
    ("CN1CCN(c2ccc(Nc3ncc(C(F)(F)F)c(NC4CC(C)(C)N(C)C(C)(C)C4)n3)cc2C#N)CC1 [Compound I-178]", 243),
]

A = CC1(C)CC(Nc2nc(Nc3cc(Cl)cc(Cl)c3)ncc2F)CC(C)(C)N1CCC(=O)O [Compound I-304]
B = CN1C(C)(C)CC(Nc2nc(Nc3ccc(-c4ccncc4)cc3)ncc2F)CC1(C)C [Compound I-123]
Kindly compare A with B and tell me which has the lower IC50 figure. Lab note: record the label of whichever item you select.
B
(B: 872 nM, A: 9510 nM)

---

- Test system: Human primary T cells
- experimental.protocol: IL-2 ELISA, Human Primary T Cell, Anti-CD3+CD28+ (Example 3)
- Type: cell-based
- experimental.context: Homo sapiens, T-cell, 24 h, anti-CD3+CD28 stimulation
test.readout: IC50 (nM)

A selection of reference data follows.
# sample.smiles, IC50 [nM]
measured = [
    ("CN1CCC(Nc2nc(Nc3ccc(N4CCN(C)CC4)c(C(F)(F)F)c3)ncc2F)CC1", 619),
    ("CC1(C)CC(Nc2nc(Nc3cc(OCC(F)(F)F)cc(OCC(F)(F)F)c3)ncc2F)CC(C)(C)N1", 350),
    ("CN1C(C)(C)CC(Nc2nc(Nc3cc4c(cc3Br)OC(F)(F)O4)ncc2F)CC1(C)C", 2160),
]

A = Cc1ccc(Nc2ncc(F)c(N(Cc3ccc(-c4ccccc4C#N)cc3)C3CC(C)(C)N(C)C(C)(C)C3)n2)cc1C#N
B = CN1CCN(c2ccc(Nc3ncc(F)c(NC4CC(C)(C)N(C)C(C)(C)C4)n3)cc2F)CC1
C = COc1cc(Nc2ncc(F)c(NC3CC(C)(C)NC(C)(C)C3)n2)cc(OCCn2cccc2)c1
D = CN1CCN(c2ccc(Nc3ncc(F)c(NC4CC(C)(C)N(C)C(C)(C)C4)n3)cc2C#N)CC1
Arrange the 4 compounds by rising IC50, starting with the smallest. List each label, following the requested order.
D, C, B, A
